# SUBJECT_OF_TEST: HCV NS5B RdRp genotype 1b (Hepatitis C virus genotype 1b, UniProt Q9WMX2)
# Construct: The protein was expressed with an 18 amino acid C-terminal truncation to enhance the solubility; made in house; host or cells: E. coli BL21(DE3), pET21a vector
# Sequence (Q9WMX2 2420-2992): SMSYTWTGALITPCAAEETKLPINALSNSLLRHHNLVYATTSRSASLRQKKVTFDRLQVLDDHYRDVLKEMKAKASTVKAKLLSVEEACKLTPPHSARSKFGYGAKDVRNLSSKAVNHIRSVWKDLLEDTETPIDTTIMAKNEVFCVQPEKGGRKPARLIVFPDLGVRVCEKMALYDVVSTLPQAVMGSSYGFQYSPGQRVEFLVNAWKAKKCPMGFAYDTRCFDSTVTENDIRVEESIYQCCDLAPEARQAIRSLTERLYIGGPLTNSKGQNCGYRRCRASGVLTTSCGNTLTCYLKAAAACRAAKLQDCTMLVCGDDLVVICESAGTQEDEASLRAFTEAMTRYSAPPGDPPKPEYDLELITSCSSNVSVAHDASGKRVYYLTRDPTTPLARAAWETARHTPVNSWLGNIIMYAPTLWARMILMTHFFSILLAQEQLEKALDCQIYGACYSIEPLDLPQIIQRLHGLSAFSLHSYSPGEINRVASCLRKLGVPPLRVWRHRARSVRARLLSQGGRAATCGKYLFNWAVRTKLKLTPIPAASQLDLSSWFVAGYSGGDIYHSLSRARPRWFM
# ASSAY_INFO: Standard HCV NS5B RdRp enzyme assay
# Assay type: biochemical
# COND: Table 1a; HCV NS5B RdRp genotype 1b; read-out: IC50
# Experimental: HCV NS5B RdRp cloning, expression, and purification. The cDNA encoding the NS5B protein of HCV, genotype 1b, was cloned into the pET21a expression vector. The protein was expressed with an 18 amino acid C-terminal truncation to enhance the solubility. […] Standard HCV NS5B RdRp enzyme assay. […] Plates were read on a Packard Top Count NXT after >1 hr incubation at room temperature. IC50 values for compounds were determined using seven different [I]. […]
pIC50: −log10 of the molar value.
RESULT_TYPE: pIC50

Entry under test: CNC(=O)c1c(-c2ccc(F)cc2)oc2ccc(-c3cccc(C(=O)N[C@@H](CO)C(N)=O)c3)cc12 . Its pIC50 was 5.00 to 6.00

The reported pIC50 of the molecule CNC(=O)c1c(-c2ccc(F)cc2)oc2ccc(-c3ccc(C(=O)O)c(Cl)c3)cc12 was 5.00 to 6.00

Note to self: pIC50 recorded for CNC(=O)c1c(-c2ccc(F)cc2)oc2ccc(-c3cccc(S(=O)(=O)NCc4ccccc4)c3)cc12 was < 5.00

Record summary for CNC(=O)c1c(-c2ccc(F)cc2)oc2ccc(-c3cccc(C(=O)N4CCC[C@H]4CO)c3)cc12 : reported pIC50 = 6.00 to 6.60

CNC(=O)c1c(-c2ccc(F)cc2)oc2ccc(-c3cccc(C(=O)NC4CCC4)c3)cc12 yielded pIC50 of > 6.60

molecule CNC(=O)c1c(-c2ccc(F)cc2)oc2ccc(-c3cccc(C(=O)Nc4cccc(CC(=O)O)c4)c3)cc12 , pIC50 observed: > 6.60

Just so you know, measured pIC50 for CCN(CC)C(=O)c1cccc(-c2ccc3oc(-c4ccc(F)cc4)c(C(=O)NC)c3c2)c1 came out at 5.00 to 6.00

For this molecule ( CNC(=O)c1c(-c2ccc(F)cc2)oc2ccc(-c3cccc(C(=O)NC(CC(C)C)C(N)=O)c3)cc12 (centres unmarked) ), measured pIC50 is 6.00 to 6.60

For this molecule ( CNC(=O)c1c(-c2ccc(F)cc2)oc2ccc(-c3cccc(C(=O)Nc4cc(C)ccn4)c3)cc12 ), measured pIC50 is 6.00 to 6.60

====

# Tested on: HCV replicon cells
# ASSAY_INFO: HCV replicon FRET / luciferase assay (96-well plates)
# Format: cell-based
# COND: Hepatitis C virus, Table 1a; HCV replicon; read-out: EC50
pEC50: −log10 of the molar value.
The following compounds are shown together with reported pEC50 values.

Examples with their reported pEC50 follow.
1) CNC(=O)c1c(-c2ccc(F)cc2)oc2ccc(-c3cccc(C(=O)NCc4cccc(C)c4)c3)cc12	> 6.60
2) CNC(=O)c1c(-c2ccc(F)cc2)oc2ccc(-c3cccc(C(=O)NCCC(C)C)c3)cc12	> 6.60
3) CCC(CC)NC(=O)c1cccc(-c2ccc3oc(-c4ccc(F)cc4)c(C(=O)NC)c3c2)c1	> 6.60

For reference, reported pEC50 for CNC(=O)c1c(-c2ccc(F)cc2)oc2ccc(-c3cccc(C(=O)Nc4ccncc4)c3)cc12 stands at > 6.60

CNC(=O)c1c(-c2ccc(F)cc2)oc2ccc(-c3cccc(C(=O)NC(C)(C)C(F)(F)F)c3)cc12 yielded pEC50 of > 6.60

Reported pEC50 of CNC(=O)c1c(-c2ccc(F)cc2)oc2ccc(-c3ccc(OC4CCCCO4)cc3)cc12 (stereo not shown) : 5.00 to 6.00

Documented pEC50 of CNC(=O)c1c(-c2ccc(F)cc2)oc2ccc(-c3cccc(C(=O)N4Cc5ccccc5C4)c3)cc12 : < 5.00

Please fill in: pEC50 reported for CNC(=O)c1c(-c2ccc(F)cc2)oc2ccc(-c3cccc(C(=O)Nc4cccc(C#N)c4)c3)cc12 = > 6.60
